Biological target: Gal(a1-3)Gal(b1-3)GlcNAc
Test: glycan array binding signal (z-score within array); higher = stronger binding
Conditions: glycan notation: IUPAC condensed, linker removed
The sample as a whole holds a higher share of the strongest signals than the screen did.
In this section, each of the binders is paired with its reported glycan array binding signal (z-score).
# output: bare number, no unit

AFL5 (Aspergillus fumigatus), Q4WB00 (protein) MDNFMEMTKKLGHQPELLRLRALDATYDDALEGKLVVAPLDMSEPGKKILDSGTADGTWLRNVRSKQSVPHDYYGSDVEGELFPKDPDGITYFAHSFKDPWPQQYLGFFDLVHIRGSLAGSAPEGPAPVIQNLTTLLKPGGWVQLMEMNAFSPPPNGPAMTDFAKMASEMFTGIGVGDFANNNKSMLEDAGLKNVQEKRVIVNLGKKAKPELHDQSIHGVTGPIVPLTSVARTVKSSFTGEQLDALPARVKEELETEGGQVEMIIAFGQKA; -0.285

# next binder below
Query: glycan array binding signal (z-score) for SSP1 (Sclerotinia sclerotiorum), XP_001584968 (protein) MGSSHHHHHHSSGLVPRGSHMSLLTTELACTSAPDQVLHLFFQDGQNILEARSPDGGNVWTTQDTIIAKDGDYNGSSMTCYYVDKDANFDNQPSIHLLYMNKDKQLTEKVKRMKGDNPIWEDAKVPDEVRKGPEQYSKLTSGSFNQGTGWNPNGSQWAYFSASKDGKMGIVEIRRTPKDPWHTETILEEKWGDELPGTALACVIGNGKIRVFLQHHDYSIILYENQNNTWHDRGTFIPKDKVQATTPLACTMTKDGSVHLFYVSKSNKIIHCTDGKKEEELINFFPGSKLGATSVENKITLFFRNLNPVNEVGTLENENGSWKHGTTVIPA ?
Reply: 2.88
